Target: T1, Bcat-Halo (beta-catenin HaloTag fusion expressed in HEK293 cells) (UniProt P35222 1-781)
T1 sequence (looked up): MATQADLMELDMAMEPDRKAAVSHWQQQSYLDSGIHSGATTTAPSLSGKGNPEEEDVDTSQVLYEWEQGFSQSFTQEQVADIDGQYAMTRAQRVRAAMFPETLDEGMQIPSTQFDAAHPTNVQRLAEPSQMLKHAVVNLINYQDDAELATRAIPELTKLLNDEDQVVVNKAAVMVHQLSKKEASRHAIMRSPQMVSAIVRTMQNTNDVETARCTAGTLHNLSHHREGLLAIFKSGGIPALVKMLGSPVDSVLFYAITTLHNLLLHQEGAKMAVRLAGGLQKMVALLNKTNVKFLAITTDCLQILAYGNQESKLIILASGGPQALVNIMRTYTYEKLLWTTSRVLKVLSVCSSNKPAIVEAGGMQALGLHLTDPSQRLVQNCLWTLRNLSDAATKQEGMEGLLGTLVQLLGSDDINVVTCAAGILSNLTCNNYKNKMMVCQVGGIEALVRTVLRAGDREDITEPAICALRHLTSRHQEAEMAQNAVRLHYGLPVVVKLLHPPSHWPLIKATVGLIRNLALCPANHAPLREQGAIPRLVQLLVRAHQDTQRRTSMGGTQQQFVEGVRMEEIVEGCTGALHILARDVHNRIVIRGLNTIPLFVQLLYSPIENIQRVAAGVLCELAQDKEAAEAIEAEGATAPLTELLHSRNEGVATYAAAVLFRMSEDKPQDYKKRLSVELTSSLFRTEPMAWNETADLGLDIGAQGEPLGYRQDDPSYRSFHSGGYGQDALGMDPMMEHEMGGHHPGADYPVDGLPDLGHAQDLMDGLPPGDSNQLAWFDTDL
Test: cell-based or functional assay
Starred links: 1 amine or outer side, 2 acyl side, 3 side chain; linkers in the order of their positions; H or OH if unused. Positions of bridges follow the written chain, without caps; N, C: chain ends. Non-standard residues stand in square brackets, D forms with d. Primed or numbered codes have the meaning given here. No end group written: not given here. PyrS2″ = (S)-3-amino-1-((pent-4-en-1-yloxy)carbonyl)pyrrolidine-3-carboxylic acid (stapling residue), C=CCCCOC(=O)N1CC[C@@](N[*:1])(C(=O)[*:2])C1; B5(4) = 2,2-bis(4-pentenyl)glycine = 2-amino-2-(pent-4-en-1-yl)hept-6-enoic acid (stitching residue), C=CCCCC(CCCC=C)(N[*:1])C(=O)[*:2]; PyrS2 = (S)-3-amino-1-((pent-4-en-1-yloxy)carbonyl)pyrrolidine-3-carboxylic acid, C=CCCCOC(=O)N1CC[C@@](N[*:1])(C(=O)[*:2])C1; Phe(3-CF3) = N[C@@H](Cc1cccc(C(F)(F)F)c1)C(=O)O; Phe(4-CF3) = N[C@@H](Cc1ccc(C(F)(F)F)cc1)C(=O)O; Phe(2-CF3) = N[C@@H](Cc1ccccc1C(F)(F)F)C(=O)O; Phe(2-Cl) = N[C@@H](Cc1ccccc1Cl)C(=O)O; Ala(cPent) = N[C@@H](CC1CCCC1)C(=O)O; Bta = N[C@@H](Cc1csc2ccccc12)C(=O)O; αAllylPro = C=CC[C@@]1(C(=O)O)CCCN1; tBuAla = CC(C)(C)C[C@H](N)C(=O)O; 3Thi = N[C@@H](Cc1ccsc1)C(=O)O
Assay metric: NanoBRET Abs IC50 (µM)
Entry rule: numbers only, all in µM.

Worked cases, answers included:
[αAllylPro]D[tBuAla][B5(4)]DDAAFN[PyrS2″][Ala(cPent)][Bta]Q-NH2 (staple 1-4, 4-11) [I-1352]: 19.5
Ac-[αAllylPro]D[tBuAla][B5(4)]DDAAF[Phe(2-CF3)][PyrS2][Phe(2-Cl)][Bta]Q-NH2 (staple 1-4, 4-11) [I-1367]: 7.8
Ac-[αAllylPro]D[tBuAla][B5(4)]DDAAF[Phe(3-CF3)][PyrS2][Phe(2-Cl)][Bta]Q-NH2 (staple 1-4, 4-11) [I-1368]: 14.2
Ac-[αAllylPro]D[tBuAla][B5(4)]DDAAF[Phe(3-CF3)][PyrS2][3Thi][Bta]Q-NH2 (staple 1-4, 4-11) [I-1364]: 10.5
Ac-[αAllylPro]D[tBuAla][B5(4)]DDAAF[Phe(4-CF3)][PyrS2][3Thi][Bta]Q-NH2 (staple 1-4, 4-11) [I-1365]: 9.7

## Input Given [αAllylPro]D[tBuAla][B5(4)]DDAAFL[PyrS2]F[Bta]Q-NH2 (staple 1-4, 4-11) [I-1362] , state its recorded NanoBRET Abs IC50.
## Output 19.6

## Input Given [αAllylPro]D[tBuAla][B5(4)]DDAAFL[PyrS2″][Ala(cPent)][Bta]Q-NH2 (staple 1-4, 4-11) [I-1353] , state its recorded NanoBRET Abs IC50.
## Output 8.8

## Input Given [αAllylPro]D[tBuAla][B5(4)]DDAAFS[PyrS2″]F[Bta]S-NH2 (staple 1-4, 4-11) [I-1357] , state its recorded NanoBRET Abs IC50.
## Output 33.6

// provenance: patent US20240116985A1
